Biological target: Tau40 P301L protein (human)
Test: cell-based or functional assay
Square brackets hold non-standard residues; d marks the D form. Ends that are not written are not given here. dCit = NC(=O)NCCC[C@@H](N)C(=O)O
Recorded IC50, Tau40 assay (ThT) by entry
Write down the numeric answer in nM and omit the unit.

[ask] Requested field: IC50, Tau40 assay (ThT). Item: [dL][dK][dI][dCit][dI][dH][dY] [lkizihy (PEPTIDE ID NO: 320)]
[reply] 2470

[ask] Next binder up: [dT][dL][dK][dI][dR][dI][dH][dY] [tlkirihy (PEPTIDE ID NO: 235)]
[reply] 940

[ask] Again, but for [dW][dR][dL][dK][dV][dQ][dW] [wrlkvqw (PEPTIDE ID NO: 281)]
[reply] 1620

[ask] Then [dL][dK][dI][dQ][dI][dH][dY] [lkiqihy (PEPTIDE ID NO: 285)] ?
[reply] 1640

[ask] // query: [dW][dN][dL][dK][dV][dR][dW] [wnlkvrw (PEPTIDE ID NO: 294)]
[reply] 1820

[ask] Moving on to [dF][dR][dL][dK][dV][dR][dW][dW] [frlkvrww (PEPTIDE ID NO: 231)]
[reply] 910

[ask] Proceed to [dW][dR][dL][dK][dV][dR][dW][dR] [wrlkvrwr (PEPTIDE ID NO: 230)]
[reply] 910

[ask] Same question, [dW][dR][dF][dK][dF][dR][dW] [wrfkfrw (PEPTIDE ID NO: 215)] this time
[reply] 820

[ask] Note, next up: [dL][dK][dI][dR][dI][dY][dY] [lkiriyy (PEPTIDE ID NO: 277)]
[reply] 1570
